# Measured on: T1, CRD1
# T1 construct: also called fragmented human CD137-Fc fusion protein CRD1
# Test description: ELISA, coated CD137-Fc protein 2 µg/mL, antibody 10 or 5 µg/mL; absorbance 620 nm divided by that of the uncoated well

Binder	Ratio with respect to Non-Coating
R1 (antibody, V domains shown, Naive library clone; Fab on phage in the phage ELISA) VH: EVQLVQSGAEVKKPGASVKVSCKASGYTFTSYYTHWVRQAPGQGLEWMGIINPSGGSTSYAQKFQGRVTMTRDTSTSTVYMELSSLRSEDTAVYYCARGAPEYSSSSDYWGQGTMVTVSS VL: QSALTQPASVSGSPGQSITISCTGTSSDVGGYNYVSWYQQHPGKAPKLMIYDVSNRPSGVSNRFSGSKSGNTASLTISGLQAEDEADYYCSSYTSSSTRWVFGGGTKLTVL	1.9

Ref: patent US20170022287A1
